# TARGET UNDER TEST: PARP1 ΔZn1 (Homo sapiens, UniProt P09874 1-1014, del2-96)
# Sequence (P09874 other isoform, or with tags, fused parts or gaps del2-96 | mutant): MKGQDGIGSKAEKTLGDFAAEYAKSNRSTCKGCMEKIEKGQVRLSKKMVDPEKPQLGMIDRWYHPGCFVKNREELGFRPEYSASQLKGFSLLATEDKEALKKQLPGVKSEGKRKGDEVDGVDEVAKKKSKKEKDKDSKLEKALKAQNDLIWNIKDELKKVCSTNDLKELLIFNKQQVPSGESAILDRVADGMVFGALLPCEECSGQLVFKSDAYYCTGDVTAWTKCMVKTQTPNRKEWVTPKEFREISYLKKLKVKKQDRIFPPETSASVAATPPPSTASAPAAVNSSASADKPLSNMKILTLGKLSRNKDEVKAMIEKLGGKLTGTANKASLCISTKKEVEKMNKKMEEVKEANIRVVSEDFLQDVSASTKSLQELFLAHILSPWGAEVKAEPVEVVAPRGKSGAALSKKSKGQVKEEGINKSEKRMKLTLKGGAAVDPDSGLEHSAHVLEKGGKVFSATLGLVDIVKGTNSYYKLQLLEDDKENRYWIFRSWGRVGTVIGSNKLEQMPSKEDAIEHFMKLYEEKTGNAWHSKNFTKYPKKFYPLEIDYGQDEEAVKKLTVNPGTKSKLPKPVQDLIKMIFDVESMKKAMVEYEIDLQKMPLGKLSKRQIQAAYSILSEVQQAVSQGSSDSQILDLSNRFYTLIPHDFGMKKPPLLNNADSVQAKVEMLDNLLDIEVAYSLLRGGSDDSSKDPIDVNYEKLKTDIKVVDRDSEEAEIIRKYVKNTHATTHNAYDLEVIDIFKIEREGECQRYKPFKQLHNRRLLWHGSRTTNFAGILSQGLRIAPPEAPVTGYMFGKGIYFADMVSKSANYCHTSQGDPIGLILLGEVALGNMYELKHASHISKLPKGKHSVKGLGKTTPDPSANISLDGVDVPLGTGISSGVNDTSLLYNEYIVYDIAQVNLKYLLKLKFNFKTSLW
# PROTOCOL TEXT: stopped-flow fluorescence anisotropy; K1, first DNA; kinetically derived; 50 mM Tris-HCl pH 7.5, 50 mM NaCl, 1 mM MgCl2, 0.1 mM EDTA, 0.01% IGEPAL; 20 °C (stated for association)
# PARTICULARS: protein: recombinant; tags: His tag (Ni-NTA, pET28a); blunt
pKd: −log10 of the molar value.
OBSERVED PROPERTY: pKd

Look up pKd for this binder: p18mer* (dsDNA, 5'-phosphate) DNA 1: GGGTTGCGGCCGCTTGGG DNA 2: CCCAAGCGGCCGCAACCC
> 8.57
